This collection of values is drawn from ChEMBL document CHEMBL2321772.

# test: Volume of distribution at steady state in dog
# Format: ADME, organism-based, Canis lupus familiaris
# experimental-conditions: in vivo, read-out: Vdss
measurement-label: Vd (L/kg)
Please respond with the number in L/kg and leave the unit unwritten.

The recorded Vd for entry NC1(C(=O)NCc2ccc(Cl)cc2)CCN(c2ncnc3[nH]ccc23)CC1 equals 0.6

###

# test: Intrinsic clearance in dog hepatocytes assessed per million of cells
# Format: ADME, cell-based, Canis lupus familiaris, Hepatocyte
# experimental-conditions: read-out: CLH
measurement-label: hepatocyte CLint (µL/min/1e6 cells)
Please respond with the number in µL/min/1e6 cells and leave the unit unwritten.

The recorded hepatocyte CLint for entry NC1(C(=O)NCc2ccc(Cl)cc2)CCN(c2ncnc3[nH]ccc23)CC1 equals 6

###

# test: Intrinsic clearance in mouse hepatocytes assessed per million of cells
# Assay type: ADME, cell-based, Hepatocyte
# experimental-conditions: read-out: CLH
measurement-label: hepatocyte CLint (µL/min/1e6 cells)
Please respond with the number in µL/min/1e6 cells and leave the unit unwritten.

The recorded hepatocyte CLint for entry NC1(C(=O)NCc2ccc(Cl)cc2)CCN(c2ncnc3[nH]ccc23)CC1 equals 10

###

# test: Half life in mouse
# Assay type: ADME, organism-based
# experimental-conditions: in vivo
measurement-label: half-life (min)
Please respond with the number in min and leave the unit unwritten.

The recorded half-life for entry NC1(C(=O)NCc2ccc(Cl)cc2)CCN(c2ncnc3[nH]ccc23)CC1 equals 48

###

# test: Oral bioavailability in rat
# Format: ADME, organism-based
# experimental-conditions: in vivo
measurement-label: bioavailability (%)
Please respond with the number in % and leave the unit unwritten.

The recorded bioavailability for entry NC1(C(=O)NCc2ccc(Cl)cc2)CCN(c2ncnc3[nH]ccc23)CC1 equals 56

###

# test: Clearance in mouse
# Type: ADME, organism-based
# experimental-conditions: in vivo
measurement-label: clearance

The recorded clearance for entry NC1(C(=O)NCc2ccc(Cl)cc2)CCN(c2ncnc3[nH]ccc23)CC1 equals 42 mL/min/kg

###

# test: Oral bioavailability in mouse
# Type: ADME, organism-based
# experimental-conditions: in vivo
measurement-label: bioavailability (%)
Please respond with the number in % and leave the unit unwritten.

The recorded bioavailability for entry NC1(C(=O)NCc2ccc(Cl)cc2)CCN(c2ncnc3[nH]ccc23)CC1 equals 88

###

Catalogue of compounds with associated logD
# test: physchem
# experimental-conditions: octanol/water
I'd appreciate a reply containing only the number, no unit.

Solved entries (count: 2):
# compound, logD
measured = [
    ("CC(=O)NCC(NC(=O)C1(N)CCN(c2ncnc3[nH]ccc23)CC1)c1ccc(Cl)cc1 (racemic)", 2.4),
    ("NC1(C(=O)NC(c2ccccc2)c2ccc(Cl)cc2)CCN(c2ncnc3[nH]ccc23)CC1 (racemic)", 4.1),
]

The recorded logD for entry C[C@@H](NC(=O)C1(N)CCN(c2ncnc3[nH]ccc23)CC1)c1ccc(Cl)cc1 equals 3.3
